Each entry below lists one item and its recorded protein stability index value.
B1: PRKX (parent)
chain: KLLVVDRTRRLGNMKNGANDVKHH

# Variants of: B1
# assay_info: protein stability index of a GFP-peptide fusion (GPS, HEK-293T) (PSI 1-6); higher = more stable;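 note: lentivirally expressed fusions sorted by FACS into six bins by GFP to DsRed ratio, PSI derived from sequencing read proportions per bin multiplied by bin number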
# condition_details: c terminus: a fixed tail appended
Give a plain numeric answer without units written out.

Guide cases for protein stability index, answers given:
| variant_string | protein stability index |
| --- | --- |
| V5F | 2.65 |
| K1M | 1.85 |

stdin: Which protein stability index value belongs to "K22V" ?
stdout: 2.88

stdin: Please give the result for "N19T" too.
stdout: 3.11

stdin: Same thing, different variant: "L2W"
stdout: 2.87

stdin: Then this variant: "G17I"
stdout: 2.74

stdin: Param item: "V4Q"
stdout: 3.19

stdin: And for "H23F" ?
stdout: 2.53

stdin: Please answer likewise for "K1F"
stdout: 1.44

stdin: Moving on to the next variant: "D20A"
stdout: 3.13

stdin: # repeat for "K1Y"
stdout: 2.29

stdin: Also, "H24F" please.
stdout: 2.36

stdin: Please do the same for "G17Y" as well.
stdout: 2.34

stdin: Next variant up: "G17L"
stdout: 2.81

stdin: And for "A18N" ?
stdout: 3.19

stdin: Try "R9C" next.
stdout: 2.21

stdin: And the next one, "V4G" ?
stdout: 3.32

stdin: Would you mind doing "K15V" as well?
stdout: 2.72

stdin: // next record "N13F"
stdout: 2.02

stdin: Cool, now "M14C"
stdout: 2.85

stdin: Can you check "R10K" next?
stdout: 2.84

The measurements presented in this section are drawn from the supplement of paper PMC10567573.
